# Experimental Target: hTRPA1 (Homo sapiens, UniProt O75762)
# Sequence (O75762 whole entry): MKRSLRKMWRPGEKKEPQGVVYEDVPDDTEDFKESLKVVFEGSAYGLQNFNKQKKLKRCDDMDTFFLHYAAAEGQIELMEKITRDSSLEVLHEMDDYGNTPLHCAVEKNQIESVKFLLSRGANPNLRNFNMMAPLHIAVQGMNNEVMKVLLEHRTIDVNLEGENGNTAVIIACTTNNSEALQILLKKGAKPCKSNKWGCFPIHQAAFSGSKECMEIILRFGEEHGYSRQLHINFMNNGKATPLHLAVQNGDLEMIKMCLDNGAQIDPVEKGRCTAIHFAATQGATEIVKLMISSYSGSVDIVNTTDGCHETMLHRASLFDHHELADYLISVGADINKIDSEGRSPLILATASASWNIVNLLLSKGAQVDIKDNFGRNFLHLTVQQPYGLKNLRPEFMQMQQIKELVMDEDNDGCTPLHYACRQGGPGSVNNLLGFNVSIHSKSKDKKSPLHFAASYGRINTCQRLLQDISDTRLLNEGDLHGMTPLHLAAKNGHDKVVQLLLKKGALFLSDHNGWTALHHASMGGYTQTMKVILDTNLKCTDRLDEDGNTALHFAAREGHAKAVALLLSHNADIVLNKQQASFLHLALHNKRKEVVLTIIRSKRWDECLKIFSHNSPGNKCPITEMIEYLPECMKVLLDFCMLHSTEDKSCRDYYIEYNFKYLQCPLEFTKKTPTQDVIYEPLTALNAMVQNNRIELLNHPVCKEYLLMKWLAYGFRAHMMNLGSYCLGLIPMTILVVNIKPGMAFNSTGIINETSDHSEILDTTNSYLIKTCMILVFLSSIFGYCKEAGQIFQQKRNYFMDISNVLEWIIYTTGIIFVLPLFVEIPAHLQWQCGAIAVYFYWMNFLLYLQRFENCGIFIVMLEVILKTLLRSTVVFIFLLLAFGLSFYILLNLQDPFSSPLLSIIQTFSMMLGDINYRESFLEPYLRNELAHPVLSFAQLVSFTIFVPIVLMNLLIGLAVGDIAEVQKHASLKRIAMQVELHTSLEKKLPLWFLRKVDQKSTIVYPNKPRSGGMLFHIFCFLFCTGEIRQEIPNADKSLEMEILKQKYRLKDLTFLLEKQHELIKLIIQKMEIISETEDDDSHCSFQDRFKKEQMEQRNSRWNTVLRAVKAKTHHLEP
# Assay Info: IC50 determination, dose response calcium flux (FLIPR) assay, ChanTest hTRPA1-CHO stably transfected cell line
# Condition Label: CHO-K1 Tet-On hTRPA1 cells, 30' preincubation, agonist cinnamaldehyde final 100 uM
Where a name gives a salt, the structure may show the parent alone.
Item-by-item account of pIC50
Note on pIC50: it is the negative log10 of concentration, concentration in mol/L.

Sample answers from the record:
O=C(Nc1ccc(Cl)cc1)O[C@@H](CN1CCCC(c2cccc(C(F)(F)F)n2)C1)C(F)(F)F (some centres unmarked) [Example 56, hydrochloride] :: 6.61
O=C(Nc1ccc(Cl)cc1)O[C@@H](CN1CCC[C@@H](Oc2ccc(Cl)cc2)C1)C(F)(F)F [Example 52b, hydrochloride] :: 6.02
O=C(Nc1ccc(Cl)cc1)O[C@@H](CN1CCC[C@H](Oc2ccc(Cl)cc2)C1)C(F)(F)F [Example 52a, hydrochloride] :: 6.94
O=C(Nc1ccc(Cl)cc1)O[C@@H](CN1CCC[C@@H](c2cc(C(F)(F)F)cc(C(F)(F)F)c2)C1)C(F)(F)F (single isomer, unassigned) :: 6.51
COc1cccc([C@@H]2CCCN(C[C@H](OC(=O)Nc3ccc(Cl)cc3)C(F)(F)F)C2)c1 [Example 4, hydrochloride] :: 5.11
COc1cc(C2CCCN(C[C@H](OC(=O)Nc3ccc(Cl)cc3)C(F)(F)F)C2)ccc1F (some centres unmarked) [Example 31, hydrochloride] :: 6.77
O=C(Nc1ccc(Cl)cc1)OC(CN1CCCC(Cc2ccccc2)C1)C(F)(F)F (centres unmarked) :: 6.47
CCC1CCCN(CC(OC(=O)Nc2ccc(Cl)cc2)C(F)(F)F)C1 (centres unmarked) :: 6.05
O=C(Nc1ccc(Cl)cc1)OC(CN1CCCC(c2ccc(Cl)cc2)C1)C(F)(F)F (centres unmarked) :: 6.28
O=C(Nc1ccc(Cl)cc1)O[C@@H](CN1CCCC(c2ccccn2)C1)C(F)(F)F (some centres unmarked) [Example 53, hydrochloride] :: 5.72

**Query** What value of pIC50 has been recorded for this entry: O=C(Nc1ccc(Cl)cc1)O[C@@H](CN1CCCC(OCc2cccnc2)C1)C(F)(F)F (some centres unmarked) [Example 55, hydrochloride]
**Result** 6.10

###

Recorded pIC50 values for a group of compounds are listed next.
# Experimental Target: hTRPA1 (Homo sapiens)
# Assay Info: IC50 determination, dose response calcium flux (FLIPR) assay, ChanTest hTRPA1-CHO stably transfected cell line
# Condition Label: CHO-K1 Tet-On hTRPA1 cells, 30' preincubation, agonist cinnamaldehyde final 100 uM
Counter-ions that a name gives are not always drawn.
Would you please state pIC50, meaning minus log10 of the concentration in mol/L, as a bare number?

COC1CCCN(CC(OC(=O)Nc2ccc(Cl)cc2)C(F)(F)F)C1 (stereo not drawn) :: 5.38
COCCOc1cc([C@H]2CCCN(C[C@H](OC(=O)Nc3ccc(Cl)cc3)C(F)(F)F)C2)ccc1F [Example 35, hydrochloride] :: 6.48

**Query** Find pIC50 (hTRPA1 (Homo sapiens)) for the entry O=C(Nc1ccc(Cl)cc1)O[C@@H](CN1CCC[C@H](c2ccccc2)C1)C(F)(F)F [Example 5, hydrochloride]
**Result** 6.48

**Query** Same question for O=C(C[C@@H](CN1CCC[C@@H](c2cccc(C(F)(F)F)c2)C1)C(F)(F)F)Nc1ccc(Cl)cc1 (racemic) please.
**Result** 5.85

**Query** What do you have for CS(=O)(=O)c1cccc(C2CCCN(C[C@H](OC(=O)Nc3ccc(F)cc3)C(F)(F)F)C2)c1 (stereo partly drawn) [Example 63, hydrochloride] ?
**Result** 5.54

**Query** How about this compound: COc1cccc(OC2CCCN(C[C@H](OC(=O)Nc3ccc(Cl)cc3)C(F)(F)F)C2)c1 (stereo partly drawn) [Example 49, hydrochloride]
**Result** 6.39
